Test system: THP-1 (acute monocytic leukemia)
methodNotes: MTT proliferation assay, THP-1
Assay type: cell-based, human
measurementContext: Homo sapiens, THP-1; 72 h treatment, MTT
Output yes for records whose IC50 is lower than 10 µM, no for records at or above 10 µM.

compound=CCCNC(=N)c1ccc2[nH]c(-c3ccc(OCc4cn(-c5ccnc6cc(Cl)ccc56)nn4)cc3)nc2c1.Cl.Cl.Cl cat=no
compound="COc1ccc2[nH]c(-c3ccc(OCc4cn(-c5ccnc6cc(Cl)ccc56)nn4)c(Br)c3)nc2c1 [Compound 10c]" cat=yes
compound="Clc1ccc2[nH]c(-c3ccc(OCc4cn(CCNc5ccnc6cc(Cl)ccc56)nn4)c(Br)c3)nc2c1 [Compound 15b]" cat=yes
compound="Cl.Cl.Cl.N=C(N)c1ccc2[nH]c(-c3ccc(OCc4cn(CCNc5ccnc6cc(Cl)ccc56)nn4)cc3)nc2c1 [Compound 14d]" cat=no
compound=Clc1ccc2c(-n3cc(COc4ccc(-c5nc6ccccc6[nH]5)cc4)nn3)ccnc2c1 cat=no
compound=COc1ccc2[nH]c(-c3ccc(OCc4cn(-c5ccnc6cc(Cl)ccc56)nn4)cc3)nc2c1 cat=yes
compound="Cl.Cl.Cl.N=C(N)c1ccc2[nH]c(-c3ccc(OCc4cn(-c5ccnc6cc(Cl)ccc56)nn4)c(Br)c3)nc2c1 [Compound 10d]" cat=no
compound="CCCNC(=N)c1ccc2[nH]c(-c3ccc(OCc4cn(CCNc5ccnc6cc(Cl)ccc56)nn4)c(Br)c3)nc2c1.Cl.Cl.Cl [Compound 15e]" cat=no
compound="Clc1ccc2[nH]c(-c3ccc(OCc4cn(CCNc5ccnc6cc(Cl)ccc56)nn4)cc3)nc2c1 [Compound 14b]" cat=no
compound="Clc1ccc2c(NCCn3cc(COc4ccc(-c5nc6ccccc6[nH]5)cc4Br)nn3)ccnc2c1 [Compound 15a]" cat=yes
compound="CCCNC(=N)c1ccc2[nH]c(-c3ccc(OCc4cn(CCNc5ccnc6cc(Cl)ccc56)nn4)cc3)nc2c1.Cl.Cl.Cl [Compound 14e]" cat=no
compound="Clc1ccc2[nH]c(-c3ccc(OCc4cn(-c5ccnc6cc(Cl)ccc56)nn4)c(Br)c3)nc2c1 [Compound 10b]" cat=no
compound="O=c1[nH]cc(F)c(=O)[nH]1 [Compound 5-FU, 5-fluorouracil, reference compound]" cat=no
compound="Clc1ccc2c(-n3cc(COc4ccc(-c5nc6ccccc6[nH]5)cc4Br)nn3)ccnc2c1 [Compound 10a]" cat=yes
